- Tested on: IL6
- procedureDetails: Inflammation Data of Table 8: IL6 production compared to cells that did not receive compound (stimulus AGE or TNF not given)
- Type: cell-based
- conditionSummary: concentration not given
observedProperty: Inflammation Data (result in words)

• COc1ccc(Nc2nc(NC3CCCCCC3)nc(N3CCCC3CO)n2)cc1Cl (stereo not shown) = Not Active
• COc1ccc(Nc2nc(NC3CCCCCC3)nc(Oc3ccccc3F)n2)cc1Cl [drawing 1000] = Not Active
• COc1ccc(Nc2nc(NC3CCCCCC3)nc(N3CCSCC3)n2)cc1Cl [drawing 999] = Not Active

###

- Tested on: cells
- procedureDetails: Cytotoxicity / lactate dehydrogenase assay and visual observation of cells
- Assay type: cell-based
- conditionSummary: toxic or cause cell death
observedProperty: Toxicity

* CCN1CCCC1CNc1nc(Nc2cccc3cccnc23)nc(NC2CCCCCC2)n1 (centres unmarked) [Compound 5] | toxic
* CCN1CCCC1CNc1nc(Nc2ccc(OC)c(F)c2)nc(N2CCCC3CCCCC32)n1 (centres unmarked) [Compound 59] | toxic
* CCOC(=O)c1ccc(Nc2nc(NCC3CCCN3CC)nc(NC3CCCCCC3)n2)cc1 (centres unmarked) [Compound 14] | toxic
* CCN1CCCC1CNc1nc(Nc2cccc(F)c2)nc(NC2CCCCCC2)n1 (centres unmarked) [Compound 16] | toxic
* CCN1CCCC1CNc1nc(Nc2ccc(OC)c(F)c2)nc(NC2CCCCCCC2)n1 (centres unmarked) [Compound 54] | toxic
* CCN1CCCC1CNc1nc(Nc2ccccc2Cl)nc(NC2CCCCCC2)n1 (centres unmarked) [Compound 21] | toxic
* CCN1CCCC1CNc1nc(Nc2ccc(Oc3ccccc3)cc2)nc(NC2CCCCCC2)n1 (centres unmarked) [Compound 36] | toxic
* CCN1CCCC1CNc1nc(Nc2ccc(OC(F)(F)F)cc2)nc(NC2CCCCCC2)n1 (centres unmarked) [Compound 9] | toxic
